# Tested on: Methicillin-resistant S. epidermidis (MRSE, RP62A)
# ASSAY METHOD TEXT: MIC against MRSE
# Type: cell-based
# MEASUREMENT PARAMETERS: Staphylococcus epidermidis, MRSE; Gram +; 16 h, 37° C.
READOUT TYPE: MIC (mg/L)
Give the number; mg/L is assumed, so skip it.

Query string: Specify reported MIC for the molecule shown: N=C1N(CC(=O)Nc2ccc(NC(=O)CN3C[C@H](Cc4ccccc4)N(CCCc4ccccc4)C3=N)cc2)C[C@H](Cc2ccccc2)N1CCCc1ccccc1 [Compound 5]
Result string: 0.75

Others:
Query string: Specify reported MIC for the molecule shown: N=C1N(CC(=O)Nc2cccc(NC(=O)CN3C[C@H](Cc4ccccc4)N(CCCC4CCCCC4)C3=N)c2)C[C@H](Cc2ccccc2)N1CCCC1CCCCC1 [Compound 20]
Result string: 0.33

Query string: Specify reported MIC for the molecule shown: CCCCCCN1C(=N)N(CC(=O)Nc2cccc(NC(=O)CN3C[C@H](Cc4ccccc4)N(CCCCCC)C3=N)c2)C[C@@H]1Cc1ccccc1 [Compound 12]
Result string: 0.75

Query string: Specify reported MIC for the molecule shown: CCCCCCCCCC(=O)N[C@@H](Cc1c[nH]c2ccccc12)C(=O)N[C@H](CC(N)=O)C(=O)N[C@@H](CC(=O)O)C(=O)N[C@@H]1C(=O)NCC(=O)N[C@@H](CCCN)C(=O)N[C@@H](CC(=O)O)C(=O)N[C@H](C)C(=O)N[C@@H](CC(=O)O)C(=O)NCC(=O)N[C@H](CO)C(=O)N[C@@H]([C@H](C)CC(=O)O)C(=O)N[C@@H](CC(=O)c2ccccc2N)C(=O)O[C@@H]1C [Daptomycin, reference compound]
Result string: 0.5
